Data provenance: patent US11111245B2

test-system: CDK6/D3 (Homo sapiens, UniProt Q00534)
Sequence (Q00534 whole entry): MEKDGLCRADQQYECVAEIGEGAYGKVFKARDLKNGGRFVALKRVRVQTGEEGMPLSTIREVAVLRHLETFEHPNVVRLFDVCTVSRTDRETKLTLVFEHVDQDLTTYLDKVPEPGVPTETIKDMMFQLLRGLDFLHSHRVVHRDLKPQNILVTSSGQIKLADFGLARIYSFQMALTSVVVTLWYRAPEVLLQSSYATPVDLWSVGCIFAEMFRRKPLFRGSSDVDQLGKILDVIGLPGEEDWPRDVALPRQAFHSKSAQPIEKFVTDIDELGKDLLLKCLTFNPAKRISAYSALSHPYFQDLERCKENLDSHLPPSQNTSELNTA
Sequence (P30281 whole entry partner): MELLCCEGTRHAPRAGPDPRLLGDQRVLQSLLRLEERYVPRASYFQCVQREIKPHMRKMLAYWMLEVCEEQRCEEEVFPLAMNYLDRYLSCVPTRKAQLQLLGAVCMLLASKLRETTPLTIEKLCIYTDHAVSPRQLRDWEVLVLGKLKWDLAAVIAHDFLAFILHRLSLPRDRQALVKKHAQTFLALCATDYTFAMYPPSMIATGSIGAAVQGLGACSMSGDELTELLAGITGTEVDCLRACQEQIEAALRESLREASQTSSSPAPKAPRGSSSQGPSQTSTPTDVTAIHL
method: ADP Glo Kinase assay CDK6/D3
Assay type: biochemical
condition: CDK6D3; compound at 10 μM; read-out: residual activity (%) at 10 μM CDK6D3
measured-parameter: remaining activity at 10 µM (%)
Give bare numbers, in %.

smiles: N[C@H]1CC[C@H](Nc2ncc(F)c(-c3cnc4ccc(F)cn34)n2)CC1
remaining activity at 10 µM / %: 5

smiles: N[C@H]1CC[C@H](Nc2ncc(F)c(-c3cnc4cc(-c5cccnc5)ccn34)n2)CC1
remaining activity at 10 µM / %: 0

smiles: N[C@H]1CC[C@H](Nc2ncc(F)c(-c3cnc4ccccn34)n2)CC1
remaining activity at 10 µM / %: 23

smiles: Cc1cnc(N[C@H]2CC[C@H](N)CC2)nc1-c1cnc2ccc(Oc3cccnc3)cn12
remaining activity at 10 µM / %: 46

smiles: Cc1cnc(N[C@H]2CC[C@H](O)CC2)nc1-c1cnc2ccc(-c3ccccc3)cn12
remaining activity at 10 µM / %: 94

// query Find remaining activity at 10 µM (CDK6/D3 (Homo sapiens, UniProt Q00534)) for the entry `Cc1cnc(N[C@H]2CC[C@H](N)CC2)nc1-c1cnc2ccc(-c3ccncc3)cn12`
// result 96
